# ASSAY DETAILS: Single oral dose pharmacokinetics of metapristone in beagle dogs, non-compartmental analysis
# Type: in vivo
# CONDITIONS USED: beagle, dog, plasma, po; male dogs, p.o. 5.6 mg/kg
MEASUREMENT LABEL: Cmax
Note: a bare number is incomplete; add the unit.

## Input If you can, please state the reported Cmax value of CC#C[C@]1(O)CC[C@H]2[C@@H]3CCC4=CC(=O)CCC4=C3[C@@H](c3ccc(NC)cc3)C[C@@]21C [metapristone, N-monodemethyl mifepristone] .
## Output 50 ng/mL

----------
# ASSAY DETAILS: Single oral dose pharmacokinetics of metapristone in beagle dogs, non-compartmental analysis
# Type: in vivo
# CONDITIONS USED: beagle, dog, plasma, po; female dogs, p.o. 22.5 mg/kg; read-out: MRT (0-t)
MEASUREMENT LABEL: MRT last (h)
Form entry: value (h) — number only.

## Input If you can, please state the reported MRT last value of CC#C[C@]1(O)CC[C@H]2[C@@H]3CCC4=CC(=O)CCC4=C3[C@@H](c3ccc(NC)cc3)C[C@@]21C [metapristone, N-monodemethyl mifepristone] .
## Output 7

----------
# ASSAY DETAILS: Single-dose pharmacokinetics of metapristone in rats (p.o. and i.v.), non-compartmental analysis
# Type: in vivo, Sprague Dawley (SD) rats
# CONDITIONS USED: female, Sprague-Dawley, rat, plasma, po, 22.5 mg/kg, female rats, p.o. 22.5 mg/kg; read-out: CL/F (converted)
MEASUREMENT LABEL: CL/F
Note: a bare number is incomplete; add the unit.

## Input If you can, please state the reported CL/F value of CC#C[C@]1(O)CC[C@H]2[C@@H]3CCC4=CC(=O)CCC4=C3[C@@H](c3ccc(NC)cc3)C[C@@]21C [metapristone, N-monodemethyl mifepristone] .
## Output 117 mL/min/kg

----------
# ASSAY DETAILS: Single-dose pharmacokinetics of metapristone in rats (p.o. and i.v.), non-compartmental analysis
# Type: in vivo, Sprague Dawley (SD) rats
# CONDITIONS USED: Sprague-Dawley, rat, plasma, po; female rats, p.o. 22.5 mg/kg; read-out: V d /F
MEASUREMENT LABEL: Vd/F (L/kg)
Form entry: value (L/kg) — number only.

## Input If you can, please state the reported Vd/F value of CC#C[C@]1(O)CC[C@H]2[C@@H]3CCC4=CC(=O)CCC4=C3[C@@H](c3ccc(NC)cc3)C[C@@]21C [metapristone, N-monodemethyl mifepristone] .
## Output 77.3

----------
# ASSAY DETAILS: Single-dose pharmacokinetics of metapristone in rats (p.o. and i.v.), non-compartmental analysis
# Assay type: in vivo, Sprague Dawley (SD) rats
# CONDITIONS USED: Sprague-Dawley, rat, plasma, po; male rats, p.o. 22.5 mg/kg
MEASUREMENT LABEL: AUC(0-inf) (ng·h/mL)
Form entry: value (ng·h/mL) — number only.

## Input If you can, please state the reported AUC(0-inf) value of "CC#C[C@]1(O)CC[C@H]2[C@@H]3CCC4=CC(=O)CCC4=C3[C@@H](c3ccc(NC)cc3)C[C@@]21C" .
## Output 4470

----------
# ASSAY DETAILS: Single-dose pharmacokinetics of metapristone in rats (p.o. and i.v.), non-compartmental analysis
# Assay type: in vivo, Sprague Dawley (SD) rats
# CONDITIONS USED: Sprague-Dawley, rat, plasma, iv; male rats, i.v. 10 mg/kg
MEASUREMENT LABEL: half-life (h)
Form entry: value (h) — number only.

## Input If you can, please state the reported half-life value of "CC#C[C@]1(O)CC[C@H]2[C@@H]3CCC4=CC(=O)CCC4=C3[C@@H](c3ccc(NC)cc3)C[C@@]21C" .
## Output 9.45

----------
# ASSAY DETAILS: Single-dose pharmacokinetics of metapristone in rats (p.o. and i.v.), non-compartmental analysis
# Format: in vivo, Sprague Dawley (SD) rats
# CONDITIONS USED: Sprague-Dawley, rat, plasma, po; female rats, p.o. 90 mg/kg
MEASUREMENT LABEL: AUC(0-t)
Note: a bare number is incomplete; add the unit.

## Input If you can, please state the reported AUC(0-t) value of "CC#C[C@]1(O)CC[C@H]2[C@@H]3CCC4=CC(=O)CCC4=C3[C@@H](c3ccc(NC)cc3)C[C@@]21C" .
## Output 14900 ng·h/mL

----------
# ASSAY DETAILS: Single-dose pharmacokinetics of metapristone in rats (p.o. and i.v.), non-compartmental analysis
# Assay type: in vivo, Sprague Dawley (SD) rats
# CONDITIONS USED: Sprague-Dawley, rat, plasma; male rats, range over three oral doses; read-out: Oral bioavailability
MEASUREMENT LABEL: bioavailability

## Input If you can, please state the reported bioavailability value of CC#C[C@]1(O)CC[C@H]2[C@@H]3CCC4=CC(=O)CCC4=C3[C@@H](c3ccc(NC)cc3)C[C@@]21C [metapristone, N-monodemethyl mifepristone] .
## Output 2.1 to 17.6%

----------
# ASSAY DETAILS: Single-dose pharmacokinetics of metapristone in rats (p.o. and i.v.), non-compartmental analysis
# Format: in vivo, Sprague Dawley (SD) rats
# CONDITIONS USED: Sprague-Dawley, rat, plasma, po; female rats, p.o. 22.5 mg/kg
MEASUREMENT LABEL: Cmax (ng/mL)
Form entry: value (ng/mL) — number only.

## Input If you can, please state the reported Cmax value of CC#C[C@]1(O)CC[C@H]2[C@@H]3CCC4=CC(=O)CCC4=C3[C@@H](c3ccc(NC)cc3)C[C@@]21C [metapristone, N-monodemethyl mifepristone] .
## Output 270

----------
# ASSAY DETAILS: Single-dose pharmacokinetics of metapristone in rats (p.o. and i.v.), non-compartmental analysis
# Type: in vivo, Sprague Dawley (SD) rats
# CONDITIONS USED: Sprague-Dawley, rat, plasma, iv; female rats, i.v. 10 mg/kg; read-out: MRT (0-t)
# Method: For pharmacokinetic study, rats were fasted overnight with free access to water using procedures reported previously. Ninety-six SD rats (forty-eight males and forty-eight females) were randomly divided into eight single-dose groups. […] The plasma samples obtained by centrifugation at 4000 g for 10 min and stored at −80 °Cuntil analysis. […] Metapristone was then separated and analyzed by the LC/MS/MS method according to the previously described procedures. […]
MEASUREMENT LABEL: MRT last (h)
Form entry: value (h) — number only.

## Input If you can, please state the reported MRT last value of CC#C[C@]1(O)CC[C@H]2[C@@H]3CCC4=CC(=O)CCC4=C3[C@@H](c3ccc(NC)cc3)C[C@@]21C [metapristone, N-monodemethyl mifepristone] .
## Output 1.68

----------
# ASSAY DETAILS: Single oral dose pharmacokinetics of metapristone in beagle dogs, non-compartmental analysis
# Type: in vivo
# CONDITIONS USED: beagle, dog, plasma, po; male dogs, p.o. 5.6 mg/kg
MEASUREMENT LABEL: half-life (min)
Form entry: value (min) — number only.

## Input If you can, please state the reported half-life value of "CC#C[C@]1(O)CC[C@H]2[C@@H]3CCC4=CC(=O)CCC4=C3[C@@H](c3ccc(NC)cc3)C[C@@]21C" .
## Output 491

----------
# ASSAY DETAILS: Single-dose pharmacokinetics of metapristone in rats (p.o. and i.v.), non-compartmental analysis
# Format: in vivo, Sprague Dawley (SD) rats
# CONDITIONS USED: Sprague-Dawley, rat, plasma, po; female rats, p.o. 45 mg/kg; read-out: V d /F
MEASUREMENT LABEL: Vd/F (L/kg)
Form entry: value (L/kg) — number only.

## Input If you can, please state the reported Vd/F value of "CC#C[C@]1(O)CC[C@H]2[C@@H]3CCC4=CC(=O)CCC4=C3[C@@H](c3ccc(NC)cc3)C[C@@]21C" .
## Output 67.6

----------
# ASSAY DETAILS: Single-dose pharmacokinetics of metapristone in rats (p.o. and i.v.), non-compartmental analysis
# Type: in vivo, Sprague Dawley (SD) rats
# CONDITIONS USED: Sprague-Dawley, rat, plasma, iv; male rats, i.v. 10 mg/kg; read-out: MRT (0-t)
MEASUREMENT LABEL: MRT last (h)
Form entry: value (h) — number only.

## Input If you can, please state the reported MRT last value of "CC#C[C@]1(O)CC[C@H]2[C@@H]3CCC4=CC(=O)CCC4=C3[C@@H](c3ccc(NC)cc3)C[C@@]21C" .
## Output 1.56

----------
# ASSAY DETAILS: Single oral dose pharmacokinetics of metapristone in beagle dogs, non-compartmental analysis
# Format: in vivo
# CONDITIONS USED: beagle, dog, plasma, po; female dogs, p.o. 22.5 mg/kg
MEASUREMENT LABEL: Tmax (h)
Form entry: value (h) — number only.

## Input If you can, please state the reported Tmax value of "CC#C[C@]1(O)CC[C@H]2[C@@H]3CCC4=CC(=O)CCC4=C3[C@@H](c3ccc(NC)cc3)C[C@@]21C" .
## Output 1.66
